- measurement.description: soluble on expression in E. coli; label from the status in PepcDB or PDB records
outcome.measure: soluble on expression in E. coli

| chain.sequence | result |
| --- | --- |
| MLIPGAHYRGDVPMYPASVVKLFYLVACHEWLHSGMLQPDAELERAMRDMIVDSSNDATSLVVDMLTGTTSGPVLPPEPFRTWQYQRNIVNRYFQSLGWPELTQINVNQKTWCEGPYGREQEFVGRDRQNANRLTTNATAKLIHSIVGGVAVSASASQGMMELMERSLDPELLAQDPENQVQGFLGEGLPPGAKLWSKAGLTSWVRHDAAYIELPDRCPYTLVVFMENSTASKNTEVLPFISRQIASGILEHHHHHH | not soluble |
| MSLNRPLRIGIVVGELSGDTLGEGFIKAIRARYPDAEFVGIGGPKMNALGCQSLFDMEELAVMGLVEVLGRLPRLLKVKAELVKYFTANPPDVFVGIDAPDFNLRLELSLKQAGIKTVHYVSPSVWAWRQNRIHGIAAATHLVLAFLPFEKAFYDKFNVPCEFIGHTLADSIPLASDKLAARQLLGLDEQRRWLAVLPGSRGSEMKMLAEPFIATCQKLQARYPDLGFVVALVNAKRRAQFEQAWQQVAPELNFVLVDDTARNVITAADAVMLASGTVALECMLLKRPMVVGYRVNAFTAFLAKRLLKTPYVSLPNILAGEELVKELLQDHCTVDNLYHEVSRLLESDNQALMDKFTEMHQWIRKDADQQAAQAVLHLIQKEGHHHHHH | not soluble |

----------
- measurement.description: soluble on expression in E. coli; label from the status in PepcDB or PDB records
outcome.measure: soluble on expression in E. coli

| chain.sequence | result |
| --- | --- |
| TNSAVVDVSFGFPSLVGFTFMSEMVHQFKMTFPKARVSMYEAQLSAFLPAIRDGRLDFAIGTLSDEMKLQDLHVEPLFESEFVLVANRARIGNGTVRLASLQHEQWVLPETNMGYYSELLTTLQRSGIRRENIVNTDSVVTIYNLVLNAD | not soluble |
| MSLDIAQIALHQLIKRDEQTLDMVLRDSLLPTNAAVEDMMAELHRVYSAKSKAYGLFNEQSELADALRACRKGDEDFLSFSRAATGRLRDELAKYPFAEGGIVLFCQYRYLAVEYLLISVLNSCNSMRVNEQLDISTTHYLDINHADIIARIDLTEWETNPESTRYLTFLKGRVGRKVSDFFMDFLAASEGLDTKAQNRGLLKAVDEYCDEAQLDKNERQNYRQQVHSYCTEQLQSGEEIELASLSQELPPLGEKTFQQFSADQGYELEESFPADRGTLRQLTKFAGSGGGISLNFDALLLGERIFWDPATDTLTIKGTPPNLRDQLQRRTSGGKQLEHHHHHH | not soluble |
| MADPTFAEHVATTNSRLASLRANLIDVSTFPEACSELTKWCQDQRAFTAHFEDNLMMALEAAMDYGTRENYDYMLTHGLVGACFTHRKHLSKPAATRIGRWYEQMRRLKKNGGKRKRAPPKPKDPALQASSQPTGTLPVLTSPSCPQNGQQLPTENNNFMFSPNSSDGLVLVIFSSSINFSLKIRVNAKKRKF | not soluble |
| DGTADKTKGEVSNDKVSTDEKHVVSLDPNDQSKGKGVVIDNVANGDISATSTDAINGSQLYAVAKGVTNLAGQVNNLEGKVNKVGKRADAGTASALAASQLPQATMPGKSMVAIAGSSYQGQNGLAIGVSRISDNGKVIIRLSGTTNSQGKTGVAAGVGYQW | soluble |
| SNAMWKRMTAKAEGLYIADTKSFVTKQMDKLDFDYGGIPGDLHFGLTKKAGAREPMFSRGTEIFNRRQISIVSIEECNEIALKMGVPRILPEWLGANVAVSGMPDLTSLKEGSRIIFPSGAALLCEGENDPCIQPGEVIQSYYPDQPKLASAFVRHALGIRGIVCIVERPGAVYTGDEIEVHSYQRKVKRKAERV | soluble |

Input: Write down soluble on expression in E. coli measured for item VIHVTKEVKEVATLSCGHNVSVEELAQTRIYWQKEKKMVLTMMSGDMNIWPEYKNRTIFDITNNLSIVILALRPSDEGTYECVVLKYEKDAFKREHLAEVTLSVKADFPTPSISDFEIPTSNIRRIICSTSGGFPEPHLSWLENGEELNAINTTVSQDPETELYAVSSKLDFNMTTNHSFMCLIKYGHLRVNQTFNWNTAK
Output: soluble

Input: State, in one line, measured soluble on expression in E. coli of MGSDKIHHHHHHMIIDEISLFILDMDGTLTLEPSSWDYVHRRLGINNHSVTRLYRNRYINYYCFFQSDIKAWLHKYPNLKKEKVVEFLREVPIRHGADELINVLRKNGIRTAVISGGISWLFDIISERSKIDYNFSNEIFTDEYGYIVPEGKVRVIPEEKDLVVRKIQEELGIGKDQTASVGDEMENDRIHRYSKYRFIISKKARDNLIPIPSGDLEDLLRILE
Output: not soluble

Input: Tell me its soluble on expression in E. coli given MVRGVFVGLFSKKQSVLVGVDISSTAVKLLQLSRSGNRFKVEHYAVEPLPLNAVAEKGIVEVEQVGEAIRRAVSRSGTKAKFAAAAVAGSAVITKLIPMPAGLDEQDLEAQIEIEATNYIPYPIEEVSLDFEVLGPVPNNTEMVQVLLAASRSENVELRQSALELGGLTAKVIDVEALAVENAFSLIAQELSVGSNALVALIDIGATMSTLNVLHSGRSLYAREQLFGGKQLTDEVMHRYGMTYEEAGQAKRQGGLPQSYEVEVLGPFKDSVIQQISRLLQFFYAGSEYNRVDCIVLAGGCAVIAGLPAMVEERLGVVTVVANPLAQMTLGAKVQAHTLAQDAPALMIATGLALRSFD as the entry.
Output: not soluble

Input: Entry MIGPENCNSVSEPIAYVIILAGGRSSRMGYDKAQVMVDGRRLIDLCLESIASVHAHPIVVSGQDLQLTAAVTQVMEEPAFGGPVAGIAAGMRCCDTKAGLIGVIAVDAPRSGNYLNQLRRVVLTHPEVGVAHAVVEGYDQPLLAVWRYEALTQALHALGSPRNVAAKRLLRSATTPVIAVPVDSSARDYDTVAELSALGRVRLRLEHHHHHH needs its soluble on expression in E. coli filled in; supply it.
Output: not soluble

Input: Give the measured soluble on expression in E. coli for MHHHHHHSSGVDLGTENLYFQSMASESETLNPSARIMTFYPTMEEFRNFSRYIAYIESQGAHRAGLAKVVPPKEWKPRASYDDIDDLVIPAPIQQLVTGQSGLFTQYNIQKKAMTVREFRKIANSDKYCTPRYSEFEELERKYWKNLTFNPPIYGADVNGTLYEKHVDEWNIGRLRTILDLVEKESGITIEGVNTPYLYFGMWKTSFAWHTEDMDLYSINYLHFGEPKSWYSVPPEHGKRLERLAKGFFPGSAQSCEAFLRHKMTLISPLMLKKYGIPFDKVTQEAGEFMITFPYGYHAGFNHGFNCAESTNFATRRWIEYGKQAVLCSCRKDMVKISMDVFVRKFQPERYKLWKAGKDNTVIDHTLPTPEAAEFLKESEL
Output: soluble

Input: Give a short answer stating reported soluble on expression in E. coli for MVIDFNRLNPGSTPATTGRTGSTAAGRPDATGADKAGQAATSAPKSGESVQISETAQNMQKVTDQLQTLPVVDNDKVARIKQAIADGTYQVDSERVASKLLDFESQR .
Output: not soluble

Input: Specify measured soluble on expression in E. coli for MEELNKYKQEIKDNALKELDSTKKKINEEKKHWGDLPLTYMPISNGTMTREYAETEQFYSHVVNVKNILDSLFEEVENDIKRLDAIFCFNEYTVYGQEDIEQIKENIKNEYKTSVAHFSKLWEDIKAMSVLLRSCFNKTWDRHSEVTLLTVIQTLDESIKHRGGPNYDKNNDNFFLLRECGSALRECNTQIKMDEKNLIIRIINTKDLEGGFKKSLETLLNENESANFIKLLAEYLEGVNLNVDVQVLKENFFIFAQGIKQFYLNNVETLKD .
Output: not soluble
